Hello, the source for this data is paper PMC3454389, in case you need it.

testedOn: SMb20036-CY (Sinorhizobium meliloti)
Sequence (Q92XC3 entry or part of it): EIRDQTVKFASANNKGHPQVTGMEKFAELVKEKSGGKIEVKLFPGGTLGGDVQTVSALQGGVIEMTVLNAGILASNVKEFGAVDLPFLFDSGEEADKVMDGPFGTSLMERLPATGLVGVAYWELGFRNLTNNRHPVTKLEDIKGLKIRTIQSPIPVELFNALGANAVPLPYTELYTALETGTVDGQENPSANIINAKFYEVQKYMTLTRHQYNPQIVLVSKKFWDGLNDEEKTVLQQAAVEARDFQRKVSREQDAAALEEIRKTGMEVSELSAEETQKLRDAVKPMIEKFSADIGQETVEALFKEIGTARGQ
recordedMetric: pKd
Please note pKd is a logarithmic value: minus log10 of concentration in mol/L. Answer with that number alone.

Recorded pKd of O=C(O)[C@]1(O)C[C@@H](O)[C@@H](O)[C@H](O)C1 [D-quinic acid] , please.
8.23

---

testedOn: SMc02324-RO (Sinorhizobium meliloti)
Sequence (Q92S11 entry or part of it): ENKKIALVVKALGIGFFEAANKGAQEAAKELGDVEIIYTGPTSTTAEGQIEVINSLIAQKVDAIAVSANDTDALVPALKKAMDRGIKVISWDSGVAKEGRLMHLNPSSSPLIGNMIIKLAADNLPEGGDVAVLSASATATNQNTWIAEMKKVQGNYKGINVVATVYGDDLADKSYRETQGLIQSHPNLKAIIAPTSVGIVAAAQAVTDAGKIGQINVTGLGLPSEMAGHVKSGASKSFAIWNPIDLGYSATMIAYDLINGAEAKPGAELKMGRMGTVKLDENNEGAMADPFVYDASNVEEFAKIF
We begin with a simple list: items and their reported pKd.
Note on units: pKd is unitless, being -log10 of a concentration expressed in mol/L.

compound | testValue
C[C@H](O)[C@H](O)[C@@H](O)[C@@H](O)C=O [L-rhamnose] | 8.16

Now look at this entry.
Recorded pKd for C[C@H](O)[C@@H](O)[C@@H](O)[C@H](O)C=O [L-fucose] with SMc02324-RO (Sinorhizobium meliloti), please?
4.72

---

testedOn: rcc03024-CY (DctP) (Rhodobacter capsulatus, UniProt P37735)
Sequence (P37735 27-333): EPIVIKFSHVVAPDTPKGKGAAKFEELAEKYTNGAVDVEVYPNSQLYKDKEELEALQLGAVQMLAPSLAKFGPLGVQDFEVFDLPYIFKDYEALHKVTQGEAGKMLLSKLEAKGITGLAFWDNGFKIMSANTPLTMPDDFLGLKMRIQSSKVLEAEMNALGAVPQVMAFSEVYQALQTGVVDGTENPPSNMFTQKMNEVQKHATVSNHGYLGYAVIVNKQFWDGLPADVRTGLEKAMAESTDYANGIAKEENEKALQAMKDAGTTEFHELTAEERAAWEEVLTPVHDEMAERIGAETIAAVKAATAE
recordedMetric: pKd
In textbook form, pKd equals minus log to base ten of the concentration in mol/L.

I'd like to know its pKd. The molecule in question is O=C(O)/C=C/C(=O)O [fumarate]
7.24

So what's the measured pKd for this one? O=C(O)C[C@H](O)C(=O)O [L-malate]
7.15

Any idea what pKd was measured for O=C(O)CCC(=O)O [succinate] ?
7.44

Recorded pKd of O=C(O)CC(=O)C(=O)O [oxaloacetate] , please.
4.80

---

Reported pKd for target or system SMc02324-CY (Sinorhizobium meliloti, UniProt Q92S11), by entry.
For clarity, pKd is expressed as the negative log10 of concentration in mol/L.

smilesText | testedOn | pKd
C[C@H](O)[C@@H](O)[C@@H](O)[C@H](O)C=O | SMc02324-CY (Sinorhizobium meliloti, UniProt Q92S11) | 4.96

Then this compound:
Given "C[C@H](O)[C@H](O)[C@@H](O)[C@@H](O)C=O" , state its recorded pKd.
8.14

---

// values below are pKd; system is SMc02774-CY (Sinorhizobium meliloti)
Sequence (Q92TD7 entry or part of it): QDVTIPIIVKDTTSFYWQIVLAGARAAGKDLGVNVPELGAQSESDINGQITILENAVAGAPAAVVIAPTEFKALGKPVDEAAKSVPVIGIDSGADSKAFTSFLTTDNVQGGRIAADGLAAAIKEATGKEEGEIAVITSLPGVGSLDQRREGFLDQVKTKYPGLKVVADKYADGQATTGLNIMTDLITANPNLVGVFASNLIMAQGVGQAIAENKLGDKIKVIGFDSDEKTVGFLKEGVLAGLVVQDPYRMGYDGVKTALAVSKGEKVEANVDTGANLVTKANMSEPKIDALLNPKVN
Scale note: pKd = -log10(concentration in M).

molecule | pKd
C[C@H](O)[C@@H](O)[C@@H](O)[C@H](O)C=O [L-fucose] | 8.44

For the next question, use this molecule.
What does the data say about its pKd? Entry: C[C@H](O)[C@H](O)[C@@H](O)[C@@H](O)C=O [L-rhamnose]
5.80

---

testedOn: SMc04259-CY (Sinorhizobium meliloti)
Sequence (Q92P64 entry or part of it): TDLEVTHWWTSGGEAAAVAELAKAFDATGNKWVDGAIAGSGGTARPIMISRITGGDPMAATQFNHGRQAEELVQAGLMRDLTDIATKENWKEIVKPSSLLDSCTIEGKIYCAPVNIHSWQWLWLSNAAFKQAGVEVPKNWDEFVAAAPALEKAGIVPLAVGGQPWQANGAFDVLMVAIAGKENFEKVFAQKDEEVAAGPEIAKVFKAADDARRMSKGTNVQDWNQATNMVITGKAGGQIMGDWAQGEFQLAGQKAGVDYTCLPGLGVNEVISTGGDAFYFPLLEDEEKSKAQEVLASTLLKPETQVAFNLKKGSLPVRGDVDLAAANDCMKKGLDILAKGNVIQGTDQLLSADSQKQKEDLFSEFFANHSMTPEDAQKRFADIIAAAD
recordedMetric: pKd
Note on units: pKd is unitless, being -log10 of a concentration expressed in mol/L.

Recall the recorded pKd for "O=C[C@H](O)[C@@H](O)[C@H](O[C@@H]1O[C@H](CO)[C@@H](O)[C@H](O)[C@H]1O)[C@H](O)CO" with SMc04259-CY (Sinorhizobium meliloti) and state it.
7.48
